Target: antiserum R771 (rabbit polyclonal anti-C2K neoepitope antiserum)
Assay: competitive inhibition ELISA: free peptide against plate-bound peptide-ovalbumin conjugate, antiserum R771 at 1:12,000
pIC50: −log10 of the molar value.

binder	pIC50
CGEAGKPG	7.35

All figures here come from patent US20110281285A1.
